test system: immortalized murine embryonic fibroblasts (Mef); test: Pooled negative selection RNAi screening (deep sequencing); type: cell-based; conditions: deep sequencing reads, on dox compared to initial representation
Measured Attribute: Fold depletion in Mef (Fold)
Supply the numeric figure in Fold, leaving out any unit text.

Answered cases to consult:
>  <Molecule>
Fn3k.298: shRNA, SEQ ID NO: 122 (nucleic acid) TGCTGTTGACAGTGAGCGAAAGAGCCTTAGCAGTCAGGCATAGTGAAGCCACAGATGTATGCCTGACTGCTAAGGCTCTTCTGCCTACTGCCTCGGA

>  <Fold depletion in Mef / Fold>
2.82

$$$$
>  <Molecule>
Mn1.1403: neutral control shRNA, SEQ ID NO: 205 (nucleic acid) TGCTGTTGACAGTGAGCGCAACGGTACCCTAGACAACCAATAGTGAAGCCACAGATGTATTGGTTGTCTAGGGTACCGTTATGCCTACTGCCTCGGA

>  <Fold depletion in Mef / Fold>
0.77

$$$$
>  <Molecule>
Park2.2222: shRNA, SEQ ID NO: 158 (nucleic acid) TGCTGTTGACAGTGAGCGCAACAGAGAAAGTGCCTATAAATAGTGAAGCCACAGATGTATTTATAGGCACTTTCTCTGTTATGCCTACTGCCTCGGA

>  <Fold depletion in Mef / Fold>
1.32

$$$$
>  <Molecule>
Gdi1.2355: shRNA, SEQ ID NO: 130 (nucleic acid) TGCTGTTGACAGTGAGCGACTCTAGTATATTTCACAGAAATAGTGAAGCCACAGATGTATTTCTGTGAAATATACTAGAGCTGCCTACTGCCTCGGA

>  <Fold depletion in Mef / Fold>
2.86

$$$$
>  <Molecule>
Rock2.3898: shRNA, SEQ ID NO: 174 (nucleic acid) TGCTGTTGACAGTGAGCGCCAGATTCTATATGCCAATGAATAGTGAAGCCACAGATGTATTCATTGGCATATAGAATCTGATGCCTACTGCCTCGGA

>  <Fold depletion in Mef / Fold>
1.04

$$$$
>  <Molecule>
Renilla.713: neutral control shRNA, SEQ ID NO: 213 (nucleic acid) TGCTGTTGACAGTGAGCGCAGGAATTATAATGCTTATCTATAGTGAAGCCACAGATGTATAGATAAGCATTATAATTCCTATGCCTACTGCCTCGGA

>  <Fold depletion in Mef / Fold>
1.02

$$$$

Req: Give the reported Fold depletion in Mef for this molecule. Rpa1.1620: shRNA, SEQ ID NO: 175 (also SEQ ID NO: 57) (nucleic acid) TGCTGTTGACAGTGAGCGCCCGCATGATCTTATCGGCAAATAGTGAAGCCACAGATGTATTTGCCGATAAGATCATGCGGTTGCCTACTGCCTCGGA
Resp: 10.23

Req: Give the reported Fold depletion in Mef for this molecule. Thyn1.315: shRNA, SEQ ID NO: 186 (nucleic acid) TGCTGTTGACAGTGAGCGCAAGCAACTACTGGCTGATGAATAGTGAAGCCACAGATGTATTCATCAGCCAGTAGTTGCTTATGCCTACTGCCTCGGA
Resp: 1.04
